The measured values listed here are drawn from patent US20240158446A1.

# tested_target: GDP-bound KRAS wild-type protein (Homo sapiens, UniProt P01116)
# Sequence (P01116 whole entry): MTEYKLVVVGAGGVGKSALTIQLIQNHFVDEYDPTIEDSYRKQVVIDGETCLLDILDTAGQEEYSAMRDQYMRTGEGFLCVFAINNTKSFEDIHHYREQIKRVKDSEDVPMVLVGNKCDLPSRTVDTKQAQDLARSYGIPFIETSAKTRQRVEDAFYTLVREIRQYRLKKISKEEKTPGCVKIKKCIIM
# assay_summary: Binding to KRAS by surface plasmon resonance (SPR), Single Cycle Kinetics
# condition_description: SPR Single Cycle Kinetics, GDP-bound KRAS wild-type protein, 1:1 binding model; read-out: KRAS KD
Where a SMILES comes first, the peptide text is derived from it. Bridges are numbered along the chain shown (N, C = ends). [ ]: non-standard residue; d: D form. The star is where a group is joined. hPhe(3,5-F2-4-CF3) = N[C@@H](CCc1cc(F)c(C(F)(F)F)c(F)c1)C(=O)O; hPhe(3-Cl-4-CF3) = N[C@@H](CCc1ccc(C(F)(F)F)c(Cl)c1)C(=O)O; NPrPhe(4-CF3) = CCCN[C@@H](Cc1ccc(C(F)(F)F)cc1)C(=O)O; NMePhe(4-Me) = CN[C@@H](Cc1ccc(C)cc1)C(=O)O; NMeGly(cPent) = CN[C@H](C(=O)O)C1CCCC1; NMeD = CN[C@@H](CC(=O)O)C(=O)O; NMeL = CN[C@@H](CC(C)C)C(=O)O; αMeS = C[C@](N)(CO)C(=O)O; Morpholide = C1CN(*)CCO1; NAllylGly = C=CCNCC(=O)O; NMeA = CN[C@@H](C)C(=O)O; Ac5c = NC1(C(=O)O)CCCC1; Aze = O=C(O)[C@@H]1CCN1; Ac4c = NC1(C(=O)O)CCC1; NEtG = CCNCC(=O)O; Sar = CNCC(=O)O; tBu = CC(C)(C)*
experimental_readout: pKd
// pKd here means minus log10 of the molar concentration (mol/L)

With GDP-bound KRAS wild-type protein (Homo sapiens, UniProt P01116) as the test system, CCCN1C(=O)[C@@H]2CCN2C(=O)[C@H](C)N(C)C(=O)[C@H]([C@@H](C)CC)NC(=O)[C@H](CC(C)C)N(C)C(=O)C[C@@H](C(=O)N2CCOCC2)N(C)C(=O)[C@H](C2CCCC2)N(C)C(=O)C2(CCCC2)NC(=O)[C@@H]2CCN2C(=O)[C@H](CCc2ccc(C(F)(F)F)c(Cl)c2)NC(=O)CN(C)C(=O)[C@@H]1Cc1ccc(C(F)(F)F)cc1 [PP0281] ([NMeL]I[NMeA][Aze][NPrPhe(4-CF3)][Sar][hPhe(3-Cl-4-CF3)][Aze][Ac5c][NMeGly(cPent)][NMeD]-Morpholide; lactam N-11) showed pKd of 9.32

pKd for GDP-bound KRAS wild-type protein (Homo sapiens, UniProt P01116) with input C=CCN1CC(=O)N(C)CC(=O)N(CCC)[C@@H](Cc2ccc(C(F)(F)F)cc2)C(=O)N(C)CC(=O)N[C@@H](CCc2ccc(C(F)(F)F)c(Cl)c2)C(=O)N2CCC[C@H]2C(=O)NC2(CCCC2)C(=O)N(C)[C@@H](C2CCCC2)C(=O)N(C)[C@H](C(=O)N2CCOCC2)CC(=O)N(C)[C@@H](CC(C)C)C(=O)N[C@@H]([C@@H](C)CC)C1=O [PP0749] ([NMeL]I[NAllylGly][Sar][NPrPhe(4-CF3)][Sar][hPhe(3-Cl-4-CF3)]P[Ac5c][NMeGly(cPent)][NMeD]-Morpholide; lactam N-11) equals 9.23

Sample CCO[C@@H]1C[C@H]2C(=O)NC3(CCC3)C(=O)N(C)[C@@H](C3CCCC3)C(=O)N(C)[C@H](C(=O)N(C)C)CC(=O)N(C)[C@@H](CC3CCC3)C(=O)N[C@@H]([C@@H](C)CC)C(=O)N(C)CC(=O)N(C)[C@H]3CCCCCN(C3=O)[C@@H](Cc3ccc(C(F)(F)F)cc3)C(=O)N(C)CC(=O)N[C@@H](CCc3cc(F)c(C(F)(F)F)c(F)c3)C(=O)N2C1 [PP0668] , system: GDP-bound KRAS wild-type protein (Homo sapiens, UniProt P01116). Its pKd is 9.42

Kindly note: GDP-bound KRAS wild-type protein (Homo sapiens, UniProt P01116), CCCN1C(=O)CN(C)C(=O)CNC(=O)[C@H]([C@@H](C)CC)NC(=O)[C@H](CC(C)C)N(C)C(=O)C[C@@H](C(=O)N2CCOCC2)NC(=O)[C@H](C2CCCC2)N(C)C(=O)C2(CCC2)NC(=O)[C@@H]2CCCN2C(=O)[C@H](CCc2ccc(C(F)(F)F)c(Cl)c2)NC(=O)CN(C)C(=O)[C@@H]1Cc1ccc(C(F)(F)F)cc1 [PP0326] ([NMeL]IG[Sar][NPrPhe(4-CF3)][Sar][hPhe(3-Cl-4-CF3)]P[Ac4c][NMeGly(cPent)]D-Morpholide; lactam N-11) , pKd value reported: 8.82

GET /values?item= CCC[C@H]1C(=O)N[C@@H]([C@@H](C)CC)C(=O)N(C)CC(=O)N(C)[C@H]2C/C=C\CCN(C2=O)[C@@H](Cc2ccc(C(F)(F)F)cc2)C(=O)N(C)CC(=O)N[C@@H](CCc2ccc(Cl)c(Cl)c2)C(=O)N2CC[C@H]2C(=O)NC2(CC(C)(C)C2)C(=O)N(C)[C@@H](C(CC)CC)C(=O)N(C)[C@H](C(=O)N(C)C)CC(=O)N1C [PP2921] &system= GDP-bound KRAS wild-type protein (Homo sapiens, UniProt P01116) returns pKd: 8.16

Lab note: molecule CCCN1C(=O)[C@@H]2CCN2C(=O)CN(C)C(=O)[C@H]([C@@H](C)CC)NC(=O)[C@H](CC(C)C)N(C)C(=O)C[C@@H](C(=O)N2CCOCC2)N(C)C(=O)[C@H](C2CCCC2)N(C)C(=O)[C@](C)(COC(C)(C)C)NC(=O)[C@@H]2CCCN2C(=O)[C@H](CCc2cc(F)c(C(F)(F)F)c(F)c2)NC(=O)CN(C)C(=O)[C@@H]1Cc1ccc(C(F)(F)F)cc1 [PP0800] ([NMeL]I[Sar][Aze][NPrPhe(4-CF3)][Sar][hPhe(3,5-F2-4-CF3)]P[αMeS](tBu)[NMeGly(cPent)][NMeD]-Morpholide; lactam N-11) tested on GDP-bound KRAS wild-type protein (Homo sapiens, UniProt P01116); recorded pKd was 8.57

Query CC[C@H](C)[C@@H]1NC(=O)[C@H](CC(C)C)N(C)C(=O)C[C@@H](C(=O)N2CCOCC2)N(C)C(=O)[C@H](C2CCCC2)N(C)C(=O)C2(CCCC2)NC(=O)[C@@H]2CCCN2C(=O)[C@H](CCc2ccc(C(F)(F)F)c(Cl)c2)NC(=O)CN(CC)C(=O)[C@H](Cc2ccc(C)cc2)N(C)C(=O)CN(C)C(=O)CN(C)C1=O [PP0025] ([NMeL]I[Sar][Sar][NMePhe(4-Me)][NEtG][hPhe(3-Cl-4-CF3)]P[Ac5c][NMeGly(cPent)][NMeD]-Morpholide; lactam N-11) on GDP-bound KRAS wild-type protein (Homo sapiens, UniProt P01116); pKd returned: 8.62

The value of pKd recorded for CC[C@H](C)[C@@H]1NC(=O)[C@H](CC(C)C)N(C)C(=O)C[C@@H](C(=O)N2CCOCC2)N(C)C(=O)[C@H](C2CCCC2)N(C)C(=O)C2(CC2)NC(=O)[C@@H]2CCCN2C(=O)[C@H](CCc2cc(F)c(C(F)(F)F)c(F)c2)NC(=O)CN(C)C(=O)[C@H](Cc2ccc(C(F)(F)F)cc2)N2CCCC[C@@H](C2=O)N(C)C(=O)CN(C)C1=O [PP0559] when tested on GDP-bound KRAS wild-type protein (Homo sapiens, UniProt P01116) reads 9.80

pKd for GDP-bound KRAS wild-type protein (Homo sapiens, UniProt P01116) with input CCC[C@H]1C(=O)N[C@@H]([C@@H](C)CC)C(=O)N(C2CC2)CC(=O)N(C)[C@H]2C/C=C\CCN(C2=O)[C@@H](Cc2ccc(C(F)(F)F)cc2)C(=O)N(C)CC(=O)N[C@@H](CCc2ccc(C(F)(F)F)c(OC)c2)C(=O)N2C[C@H](OCC)C[C@H]2C(=O)NC2(CC(C)(C)C2)C(=O)N(C)[C@@H](CC2CCC2)C(=O)N(C)[C@H](C(=O)N(C)C)CC(=O)N1C [PP2770] equals 8.30

###

I'd appreciate it if you could supply Kd values for the items below.
# tested_target: GDP-bound KRAS wild-type protein (Homo sapiens)
# assay_summary: Binding to KRAS by surface plasmon resonance (SPR), Single Cycle Kinetics
# condition_description: SPR, Single Cycle Kinetics, GDP-bound KRAS wild-type protein; read-out: KRAS KD
The reply should be a number in nM, with the unit left off.

The compound CCCCCC[C@H]1C(=O)N[C@@H]([C@@H](C)CC)C(=O)N(C)CC(=O)N(C)[C@H]2C/C=C\CCN(C2=O)[C@@H](Cc2ccc(C(F)(F)F)cc2)C(=O)N(C)CC(=O)N[C@@H](CCc2cc(F)c(C(F)(F)F)c(F)c2)C(=O)N2C[C@H](OCC)C[C@H]2C(=O)NC2(CCC2)C(=O)N(C)[C@@H](C(CC)CC)C(=O)N(C)[C@H](C(=O)N(C)C)CC(=O)N1C showed Kd equal to 0.4

Measured Kd, CC[C@H](C)[C@@H]1NC(=O)[C@H](CC2CCC2)N(C)C(=O)C[C@@H](C(=O)N(C)C)N(C)C(=O)[C@H](C2CCCC2)N(C)C(=O)C2(CC(C)(C)C2)NC(=O)[C@@H]2CCCN2C(=O)[C@H](CCc2cc(F)c(C(F)(F)F)c(F)c2)NC(=O)CN(C)C(=O)[C@H](Cc2ccc(C(F)(F)F)cc2)N2CC/C=C\C[C@@H](C2=O)N(C)C(=O)CN(C)C1=O : 0.16

response.value for CCC[C@H]1C(=O)N[C@@H]([C@@H](C)CC)C(=O)N(C)CC(=O)N(C)[C@H]2C/C=C\CCN(C2=O)[C@@H](Cc2ccc(C(F)(F)F)cc2)C(=O)N(C)CC(=O)N[C@@H](CCc2cc(F)c(C(F)(F)F)c(F)c2)C(=O)N2C[C@H](OCC)C[C@H]2C(=O)NC2(CC(C)(C)C2)C(=O)N(C)[C@@H](C2CCCC2)C(=O)N(C)[C@H](C(=O)N(C)C)CC(=O)N1C (field: Kd) = 0.04
